Overview of recorded SI (safety index, ratio MTC/IC50) for various molecules
- Tested on: RBL-2H3 cells
- Assay Name: Maximum tolerated concentration (cytotoxicity by lactate dehydrogenase release)
- Format: cell-based, rat
Answer using only a numeral; do not append any unit.

CCCCCCCCCCCCCC[N+](C)(C)CCCCS(=O)(=O)[O-]
40.5
CCCCCCCCCCCCCCN(C)CCCS(=O)(=O)O
23.3
CCCCCCCCCCCC[N+](C)(C)CCCS(=O)(=O)[O-]
48.8

Please turn your attention to the following entry.
Value of SI (safety index, ratio MTC/IC50) reported for the molecule CCCCCCCCCCCCCCCC[N+](C)(C)CCCS(=O)(=O)[O-] is 13.5
